# assayed-target: T1, human δ opioid receptor (human, UniProt P41143 1-372)
# T1 construct: whole, on cells; membrane preparations of the transfected cells were used; also called hDOR; DOR
# T1 sequence (P41143 whole entry, stated change not applied): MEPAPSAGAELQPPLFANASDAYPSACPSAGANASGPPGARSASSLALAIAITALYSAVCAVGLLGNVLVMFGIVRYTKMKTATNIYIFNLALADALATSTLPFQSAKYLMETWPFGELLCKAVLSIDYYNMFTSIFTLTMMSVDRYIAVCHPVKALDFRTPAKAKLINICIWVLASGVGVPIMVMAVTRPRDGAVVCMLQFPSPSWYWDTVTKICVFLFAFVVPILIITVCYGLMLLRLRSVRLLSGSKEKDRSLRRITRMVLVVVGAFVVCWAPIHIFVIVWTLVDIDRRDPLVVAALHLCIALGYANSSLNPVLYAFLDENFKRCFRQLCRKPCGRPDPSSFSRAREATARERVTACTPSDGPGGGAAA
# test-description: competition vs [3H]DPDPE, hDOR cell membranes
Square brackets hold non-standard residues; d marks the D form. Ends that are not written are not given here. * marks the point of attachment. Glc = O-glucosyl on Ser side chain (Ser(OGlu)/Ser(OGlc)); NH(3,5-(CF3)2-benzyl) = FC(F)(F)c1cc(CN*)cc(C(F)(F)F)c1
# Ki per entry
// units = nM; emit number, no label

YAGFXPLW (D-Ala at 2; Nle at 5 (written X); C-terminal NH-3,5-Bzl(CF3)2 amide, also called TY045) [TyrDAlaGlyPheNleProLeuTrpNHBn(CF3)2] :: 1

In the following, a different binder is considered.
[Q] Give its Ki value. Item: Y[dA]GFS(Glc)PLW-{NH(3,5-(CF3)2-benzyl)} (also called TY042) [TyrDAlaGlyPheSer(OGlu)ProLeuTrpNHBn(CF3)2]
[A] 58.5
